Reference for the values: patent US10000454B2

The following compounds are shown together with reported log10 of EC50 values.
# Target Or Test System: UniProt:O14842
# Sequence (O14842 whole entry): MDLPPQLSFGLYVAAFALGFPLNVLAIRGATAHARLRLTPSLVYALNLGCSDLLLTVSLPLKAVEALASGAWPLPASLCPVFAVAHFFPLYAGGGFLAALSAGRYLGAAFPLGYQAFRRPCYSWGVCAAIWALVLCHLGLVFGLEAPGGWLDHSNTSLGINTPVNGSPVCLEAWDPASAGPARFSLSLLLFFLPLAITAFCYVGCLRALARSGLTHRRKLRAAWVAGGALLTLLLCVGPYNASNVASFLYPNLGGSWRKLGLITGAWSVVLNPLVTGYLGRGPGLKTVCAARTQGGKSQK
# Experiment: Inositol Phosphate Turnover (IP1) Assay
# Assay type: cell-based
# Design: expressed in transfected cells; host or cells: HEK cells (stably expressing the aequorin reporter)
# Measurement Conditions: HEK cells stably expressing human GPR40, CisBio IP-One kit
Remember, log10 of EC50, in nM.

Compound | Quantity | Reported Result
Cn1cnc2cccc(C3CC(C)(C)c4ccc(COc5cc6c(cn5)[C@H]5[C@@H](C6)[C@@H]5C(=O)O)cc43)c21 (some centres unmarked) | log10 of EC50 | 1.44

Documented log10 of EC50 of O=C(O)[C@H]1[C@@H]2Cc3cc(OCc4ccc5ccn(-c6ccccc6C(F)(F)F)c5c4)ncc3[C@@H]21 : 1.37

Documented log10 of EC50 of O=C(O)[C@H]1[C@@H]2Cc3cc(OCc4ccc5c(c4)C(O)(c4ccccc4C(F)(F)F)CC5)ccc3[C@@H]21 (some centres unmarked) : 1.22

Documented log10 of EC50 of CC1(C)CC(c2ccccc2)c2cc(COc3cc4c(cn3)[C@H]3[C@@H](C4)[C@@H]3C(=O)O)ccc21 (some centres unmarked) : 1.35

Documented log10 of EC50 of O=C(O)[C@H]1[C@@H]2Cc3cc(OCc4ccc5c(c4)N(c4ccccc4)CCCC5)ncc3[C@@H]21 : 1.63

Documented log10 of EC50 of O=C(O)[C@H]1[C@@H]2Cc3cc(OCc4ccc5c(c4)C(c4ccccc4C(F)(F)F)CC54CCC4)ncc3[C@@H]21 (some centres unmarked) : 1.35

Documented log10 of EC50 of CC1(C)CC(c2ccccc2Cl)c2cc(COc3cc4c(cn3)[C@H]3[C@@H](C4)[C@@H]3C(=O)O)ccc21 (some centres unmarked) : 1.55

Documented log10 of EC50 of O=C(O)[C@H]1[C@@H]2Cc3cc(OCc4ccc5c(c4)C(c4ccccc4C(F)(F)F)OCC5)ncc3[C@@H]21 (some centres unmarked) : 1.18

Documented log10 of EC50 of O=C(O)[C@H]1[C@@H]2Cc3cc(OCc4ccc5c(c4)N(c4ccccc4)CCC5)ccc3[C@@H]21 : 1.86

Documented log10 of EC50 of O=C(O)[C@H]1[C@@H]2Cc3cc(OCc4ccc5c(C6CC6)cn(-c6ccccc6C(F)(F)F)c5c4)ncc3[C@@H]21 : 1.96

Documented log10 of EC50 of O=C(O)[C@H]1[C@@H]2Cc3cc(OCc4cc5c(cc4F)CCOC5c4ccccc4C(F)(F)F)ncc3[C@@H]21 (some centres unmarked) [Example 59] : 1.99

Documented log10 of EC50 of CC1(C)CC(c2ccccc2C(F)(F)F)c2cc(COc3cc4c(cn3)[C@H]3[C@@H](C4)[C@@H]3C(=O)O)c(F)cc21 (single isomer, unassigned) [Example 23] : 1.22

----------
# Target Or Test System: UniProtKB O14842
# Experiment: Inositol Phosphate Turnover (IP1) Assay
# Type: cell-based
# Parameters: expressed in transfected cells; host or cells: HEK cells (stably expressing the aequorin reporter)
# Measurement Conditions: HEK cells stably expressing human GPR40, CisBio IP-One kit
Please assign -1 whenever EC50 is at or above 40 nM, and 1 whenever it is below.

// below: answered molecules
Molecule | Label Value
COc1nccc(C)c1C1CC(C)(C)c2ccc(COc3cc4c(cn3)[C@H]3[C@@H](C4)[C@@H]3C(=O)O)cc21 (stereo partly shown) | 1
Cc1c(COc2cc3c(cn2)[C@H]2[C@@H](C3)[C@@H]2C(=O)O)ccc2c1C(c1ccccc1C(F)(F)F)CCC2 (stereo partly shown) | -1
CC1(C)CCC(c2ccccc2C(F)(F)F)c2cc(COc3cc4c(cn3)[C@H]3[C@@H](C4)[C@@H]3C(=O)O)c(F)cc21 (stereo partly shown) | -1
CC1CCc2ccc(COc3cc4c(cn3)[C@H]3[C@@H](C4)[C@@H]3C(=O)O)cc2C1c1ccccc1C(F)(F)F (stereo partly shown) | -1
O=C(O)[C@H]1[C@@H]2Cc3cc(OCc4ccc5c(c4)C(c4ccccc4C(F)(F)F)CC5c4ccccc4)ncc3[C@@H]21 (stereo partly shown) [Example 18] | 1
CC1(C)CCN(c2ccccc2C(F)(F)F)c2c1ccc(COc1cc3c(cn1)[C@H]1[C@@H](C3)[C@@H]1C(=O)O)c2F | 1
O=C(O)[C@H]1[C@@H]2Cc3cc(OCc4ccc5c(c4)C(c4ccccc4C(F)(F)F)CCC5)ncc3[C@@H]21 (single isomer, unassigned) | 1
CC1(C)OCC2(CO1)CC(c1ccccc1C(F)(F)F)c1cc(COc3cc4c(cn3)[C@H]3[C@@H](C4)[C@@H]3C(=O)O)ccc12 (stereo partly shown) | 1
CC1(C)CC(c2ccccc2F)c2cc(COc3cc4c(cn3)[C@H]3[C@@H](C4)[C@@H]3C(=O)O)ccc21 (stereo partly shown) | -1
CC1(C)CC(c2ccccc2C(F)(F)F)c2cc(COc3cc4c(cn3)[C@@]3(C)[C@@H](C4)[C@@H]3C(=O)O)c(F)cc21 (single isomer, unassigned) | -1

Challenge: # check: EC50 < 40 nM for Cc1nc(OCCC(C)(C)O)ccc1C1CCCc2ccc(COc3cc4c(cn3)[C@H]3[C@@H](C4)[C@@H]3C(=O)O)cc21 (stereo partly shown)
Response given: 1

Challenge: # check: EC50 < 40 nM for CC1(C)CC(c2cccnc2C(F)(F)F)c2cc(COc3cc4c(cn3)[C@H]3[C@@H](C4)[C@@H]3C(=O)O)c(F)cc21 (stereo partly shown)
Response given: 1

Challenge: # check: EC50 < 40 nM for O=C(O)[C@H]1[C@@H]2Cc3cc(OCc4ccc5c(c4)C(c4ccccc4C(F)(F)F)CC5c4ccccc4)ncc3[C@@H]21 (stereo partly shown) [Example 19]
Response given: 1

Challenge: # check: EC50 < 40 nM for Cn1cnc2c([C@H]3CC(C)(C)c4ccc(COc5cc6c(cn5)[C@H]5[C@@H](C6)[C@@H]5C(=O)O)cc43)cccc21
Response given: -1

Challenge: # check: EC50 < 40 nM for CN(C)[C@H]1C[C@H](c2ccccc2C(F)(F)F)c2cc(COc3cc4c(cn3)[C@H]3[C@@H](C4)[C@@H]3C(=O)O)c(F)cc21
Response given: 1
